ASSAY REMARKS: CEETOX_H295R_OHPROG: CeeTox H295R High-throughput Steroidogenesis Assay for OH-Progesterone (OHPROG) (AID 2283435)
CONDITIONS: actives raise or lower the signal
Active and inactive are the calls of the source. The calls were made as follows: active = hit-call score of the fitted dose curve at least 0.9, where 1 is the maximum; inactive = score below 0.9.
Outcome codes: YES for active, NO for inactive

[
  {
    "COMPOUND": "O=C(Nc1ccc([N+](=O)[O-])cc1Cl)c1cc(Cl)ccc1O",
    "LABEL VALUE": "NO"
  },
  {
    "COMPOUND": "C[C@]12C[C@H](O)[C@H]3[C@@H](CCC4=CC(=O)CC[C@@]43C)[C@@H]1CC[C@@H]2C(=O)CO",
    "LABEL VALUE": "YES"
  },
  {
    "COMPOUND": "CC(=O)[C@H]1CC[C@H]2[C@@H]3CCC4=CC(=O)CC[C@]4(C)[C@H]3CC[C@]12C",
    "LABEL VALUE": "NO"
  },
  {
    "COMPOUND": "CC1(C)C(C=C(Cl)Cl)C1C(=O)OCc1cccc(Oc2ccccc2)c1 (configuration not stated)",
    "LABEL VALUE": "YES"
  },
  {
    "COMPOUND": "S=C([S-])NCCNC(=S)[S-].[Mn+2]",
    "LABEL VALUE": "NO"
  },
  {
    "COMPOUND": "CC(C)(c1ccc(O)cc1)c1ccc(O)cc1",
    "LABEL VALUE": "NO"
  },
  {
    "COMPOUND": "c1ccc2[nH]c(-c3cscn3)nc2c1",
    "LABEL VALUE": "NO"
  },
  {
    "COMPOUND": "CCCCOCCOCCOCc1cc2c(cc1CCC)OCO2",
    "LABEL VALUE": "NO"
  },
  {
    "COMPOUND": "CCCCOC(=O)[C@@H](C)Oc1ccc(Oc2ccc(C(F)(F)F)cn2)cc1",
    "LABEL VALUE": "NO"
  },
  {
    "COMPOUND": "CCCCC(CC)CN1C(=O)C2C3C=CC(C3)C2C1=O (configuration not stated)",
    "LABEL VALUE": "NO"
  },
  {
    "COMPOUND": "CSC(=O)c1cccc2nnsc12",
    "LABEL VALUE": "YES"
  },
  {
    "COMPOUND": "CCCN(CCC)C(=O)SCC",
    "LABEL VALUE": "NO"
  }
]

Provenance of the data: PubChem BioAssay (EPA / NIEHS)
